Biological target: T1, TL1A in human blood (endogenous) (human, UniProt O95150 72-251, limits assumed)
T1 sequence (looked up): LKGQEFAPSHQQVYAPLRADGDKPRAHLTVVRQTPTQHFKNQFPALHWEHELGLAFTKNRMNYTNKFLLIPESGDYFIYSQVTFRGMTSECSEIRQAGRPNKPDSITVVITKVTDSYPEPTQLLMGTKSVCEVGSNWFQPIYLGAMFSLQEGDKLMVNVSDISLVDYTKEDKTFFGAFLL
Assay: cell-based or functional assay
# % Inhibition at 10 nM Ig of interferon gamma release in human blood listing for each entry below
Give the value, in units of %, as a plain number.

Use the examples below as a reference point.
A220 (antibody, human IgG1, V domains shown) VH: QVQLVQSGAEVKKPGASVKVSCKASGFDIQDTYMHWVKQRPGQGLEWMGRIDPASGHTKYDPKFQVRVTMTRDTSTSTAYLELSSLRSEDTAVYYCARSGGLPDVWGQGTTVTVSS VL: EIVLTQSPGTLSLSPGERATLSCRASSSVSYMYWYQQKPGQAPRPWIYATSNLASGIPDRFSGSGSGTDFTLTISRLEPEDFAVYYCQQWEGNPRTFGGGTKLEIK	63.2
A147 (antibody, human IgG1, V domains shown) VH: QVQLVQSGAEVKKPGASVKVSCKASGFDIQDTYMHWVKQRPGQGLEWMGRIEPASGHIKYDPKFQGRVTMTRDTSTSTVYMELSSLRSEDTAVYYCARSGGLPDWWGQGTTVTVSS VL: EIVLTQSPGTLSLSPGERATLSCRASSSVSYMYWYQQKPGQAPRPLIYATSNLASGIPDRFSGSGSGTDFTLTISRLEPEDFAVYYCQQWEGNPRTFGGGTKLEIK	72.4

In the following, a different binder is considered.
Task item: Using known records, supply % Inhibition at 10 nM Ig of interferon gamma release in human blood for A212 (antibody, human IgG1, V domains shown) VH: QVQLVQSGAEVKKPGASVKVSCKASGFDIQDTYMHWVRQRPGQGLEWIGRIDPASGHTKYDPKFQVRATITTDTSTSTAYLELSSLRSEDTAVYYCARSGGLPDVWGQGTTVTVSS VL: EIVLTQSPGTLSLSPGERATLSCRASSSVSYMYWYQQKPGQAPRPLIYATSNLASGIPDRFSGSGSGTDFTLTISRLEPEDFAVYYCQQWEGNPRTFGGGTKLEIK
Reply: 71.2
